Answer each item with its documented pIC50.
TEST NAME: Inhibition of Escherichia coli DdlB after 20 mins by malachite green staining-based colorimetric assay
RUN CONDITIONS: read-out: IC50
By convention, pIC50 is the negative base-10 log of a molar concentration.

Sure, the documented pIC50 for O=C1NC(=O)C(=C(O)Nc2ccccc2)C(=O)N1 is 3.21

Sure, the documented pIC50 for Cc1cc(C(=N)NOC(=O)Nc2ccc(Cl)cc2)no1 is 3.18

Sure, the documented pIC50 for N/C(=N\OC(=O)Nc1cccc(Cl)c1)c1ccno1 is 3.42

====

TEST NAME: Competitive inhibition of Escherichia coli DdlB after 20 mins by malachite green staining-based colorimetric assay in presence of ATP
ENDPOINT LABEL: Ki (µM)
API: value field is a number in µM; no unit string.

Sure, the documented Ki for N/C(=N\OC(=O)Nc1cccc(Cl)c1)c1ccno1 is 326
